The measured values listed here are drawn from ChEMBL document CHEMBL1126896.

- Test system: MT4
- experiment-description: Effective concentration to achieve 50% protection of MT-4 cells against the cytopathic effect of HIV-2
- Assay type: functional, cell-based
- experimental-parameters: Homo sapiens, MT4; read-out: EC50
Recorded EC50 values for a group of molecules are listed next.
Give a bare numeral; the unit µg/mL is implied.

CCCC(=O)OC/C(=C\C(=O)OCc1ccccc1)OC1OC(COS(=O)(=O)[O-])C(OC2OC(C(=O)OCc3ccccc3)C(OC3OC(COS(=O)(=O)[O-])C(OC4OC(C(=O)OCc5ccccc5)C(OC5OC(COS(=O)(=O)[O-])C(O)C(OC(=O)CCC)C5NS(=O)(=O)[O-])C(OC(=O)CCC)C4OS(=O)(=O)[O-])C(OC(=O)CCC)C3NS(=O)(=O)[O-])C(OC(=O)CCC)C2OS(=O)(=O)[O-])C(OC(=O)CCC)C1NS(=O)(=O)[O-].[Na+].[Na+].[Na+].[Na+].[Na+].[Na+].[Na+].[Na+] (stereo not given); 0.42

Give the measured EC50 for CCCC(=O)OC/C(=C\C(=O)[O-])OC1OC(COS(=O)(=O)[O-])C(OC2OC(C(=O)[O-])C(OC3OC(COS(=O)(=O)[O-])C(OC4OC(C(=O)[O-])C(OC5OC(COS(=O)(=O)[O-])C(O)C(OC(=O)CCC)C5NC(C)=O)C(OC(=O)CCC)C4OS(=O)(=O)[O-])C(OC(=O)CCC)C3NC(C)=O)C(OC(=O)CCC)C2OS(=O)(=O)[O-])C(OC(=O)CCC)C1NC(C)=O.[Na+].[Na+].[Na+].[Na+].[Na+].[Na+].[Na+].[Na+] (stereo not given)
1.2

Give EC50 for the following molecule: C=CCOC(=O)/C=C(\CO)OC1OC(COS(=O)(=O)[O-])C(OC2OC(C(=O)OCC=C)C(OC3OC(COS(=O)(=O)[O-])C(OC4OC(C(=O)OCC=C)C(OC5OC(COS(=O)(=O)[O-])C(O)C(O)C5NS(=O)(=O)[O-])C(O)C4OS(=O)(=O)[O-])C(O)C3NS(=O)(=O)[O-])C(O)C2OS(=O)(=O)[O-])C(O)C1NS(=O)(=O)[O-].[Na+].[Na+].[Na+].[Na+].[Na+].[Na+].[Na+].[Na+] (stereo not given)
1

In one line, give reported EC50 of the entry O=C(/C=C(\CO)OC1OC(COS(=O)(=O)[O-])C(OC2OC(C(=O)OCc3ccccc3)C(OC3OC(COS(=O)(=O)[O-])C(OC4OC(C(=O)OCc5ccccc5)C(OC5OC(COS(=O)(=O)[O-])C(O)C(O)C5NS(=O)(=O)[O-])C(O)C4OS(=O)(=O)[O-])C(O)C3NS(=O)(=O)[O-])C(O)C2OS(=O)(=O)[O-])C(O)C1NS(=O)(=O)[O-])OCc1ccccc1.[Na+].[Na+].[Na+].[Na+].[Na+].[Na+].[Na+].[Na+] (stereo not given) .
0.4

---

- Test system: MT4
- experiment-description: Selectivity index for CC50 (cytotoxic concentration based on reduction of viability of mock-infected MT-4 cells) to that of EC50 against HIV-2
- Type: functional
Catalogue of Selectivity index values

# annotated cases, reported Selectivity index shown
CCCC(=O)OC/C(=C\C(=O)OCc1ccccc1)OC1OC(COS(=O)(=O)[O-])C(OC2OC(C(=O)OCc3ccccc3)C(OC3OC(COS(=O)(=O)[O-])C(OC4OC(C(=O)OCc5ccccc5)C(OC5OC(COS(=O)(=O)[O-])C(O)C(OC(=O)CCC)C5NS(=O)(=O)[O-])C(OC(=O)CCC)C4OS(=O)(=O)[O-])C(OC(=O)CCC)C3NS(=O)(=O)[O-])C(OC(=O)CCC)C2OS(=O)(=O)[O-])C(OC(=O)CCC)C1NS(=O)(=O)[O-].[Na+].[Na+].[Na+].[Na+].[Na+].[Na+].[Na+].[Na+] (stereo not given); >1190
CCCCOC(=O)/C=C(\COC(=O)CCC)OC1OC(COS(=O)(=O)[O-])C(OC2OC(C(=O)OCCCC)C(OC3OC(COS(=O)(=O)[O-])C(OC4OC(C(=O)OCCCC)C(OC5OC(COS(=O)(=O)[O-])C(O)C(OC(=O)CCC)C5NC(C)=O)C(OC(=O)CCC)C4OS(=O)(=O)[O-])C(OC(=O)CCC)C3NC(C)=O)C(OC(=O)CCC)C2OS(=O)(=O)[O-])C(OC(=O)CCC)C1NC(C)=O.[Na+].[Na+].[Na+].[Na+].[Na+] (stereo not given); >192
CCCCCC(=O)OC/C(=C\C(=O)[O-])OC1OC(COS(=O)(=O)[O-])C(OC2OC(C(=O)[O-])C(OC3OC(COS(=O)(=O)[O-])C(OC4OC(C(=O)[O-])C(OC5OC(CS(=O)(=O)[O-])C(O)C(OC(=O)CCCCC)C5NS(=O)(=O)[O-])C(OC(=O)CCCCC)C4OS(=O)(=O)[O-])C(OC(=O)CCCCC)C3NS(=O)(=O)[O-])C(OC(=O)CCCCC)C2OS(=O)(=O)[O-])C(OC(=O)CCCCC)C1NS(=O)(=O)[O-].[Na+].[Na+].[Na+].[Na+].[Na+].[Na+].[Na+].[Na+].[Na+].[Na+].[Na+] (stereo in doubt; 3i); >1666
C/C=C\COC(=O)/C=C(\CO)OC1OC(COS(=O)(=O)[O-])C(OC2OC(C(=O)OC/C=C/C)C(OC3OC(COS(=O)(=O)[O-])C(OC4OC(C(=O)OC/C=C/C)C(OC5OC(COS(=O)(=O)[O-])C(O)C(O)C5NS(=O)(=O)[O-])C(O)C4OS(=O)(=O)[O-])C(O)C3NS(=O)(=O)[O-])C(O)C2OS(=O)(=O)[O-])C(O)C1NS(=O)(=O)[O-].[Na+].[Na+].[Na+].[Na+].[Na+].[Na+].[Na+].[Na+] (stereo not given); >384

// moving on: another record for Selectivity index
Lab note: MT4 assay, enter Selectivity index for CCCC(=O)OC/C(=C\C(=O)[O-])OC1OC(COS(=O)(=O)[O-])C(OC2OC(C(=O)[O-])C(OC3OC(COS(=O)(=O)[O-])C(OC4OC(C(=O)[O-])C(OC5OC(COS(=O)(=O)[O-])C(O)C(OC(=O)CCC)C5NC(C)=O)C(OC(=O)CCC)C4OS(=O)(=O)[O-])C(OC(=O)CCC)C3NC(C)=O)C(OC(=O)CCC)C2OS(=O)(=O)[O-])C(OC(=O)CCC)C1NC(C)=O.[Na+].[Na+].[Na+].[Na+].[Na+].[Na+].[Na+].[Na+] (stereo not given) here
>417

---

A collection of compounds and their measured Selectivity index
- System: MT4
- experiment-description: Selectivity index for CC50 (cytotoxic concentration based on reduction of viability of mock-infected MT-4 cells) to that of EC50 against HIV-2
- Type: functional

C=CCCOC(=O)/C=C(\CO)OC1OC(COS(=O)(=O)[O-])C(OC2OC(C(=O)OCCC=C)C(OC3OC(COS(=O)(=O)[O-])C(OC4OC(C(=O)OCCC=C)C(OC5OC(COS(=O)(=O)[O-])C(O)C(O)C5NS(=O)(=O)[O-])C(O)C4OS(=O)(=O)[O-])C(O)C3NS(=O)(=O)[O-])C(O)C2OS(=O)(=O)[O-])C(O)C1NS(=O)(=O)[O-].[Na+].[Na+].[Na+].[Na+].[Na+].[Na+].[Na+].[Na+] (stereo not given); >208
C=CCOC(=O)/C=C(\CO)OC1OC(COS(=O)(=O)[O-])C(OC2OC(C(=O)OCC=C)C(OC3OC(COS(=O)(=O)[O-])C(OC4OC(C(=O)OCC=C)C(OC5OC(COS(=O)(=O)[O-])C(O)C(O)C5NS(=O)(=O)[O-])C(O)C4OS(=O)(=O)[O-])C(O)C3NS(=O)(=O)[O-])C(O)C2OS(=O)(=O)[O-])C(O)C1NS(=O)(=O)[O-].[Na+].[Na+].[Na+].[Na+].[Na+].[Na+].[Na+].[Na+] (stereo not given); >500
CCCCOC(=O)/C=C(\CO)OC1OC(COS(=O)(=O)[O-])C(OC2OC(C(=O)OCCCC)C(OC3OC(COS(=O)(=O)[O-])C(OC4OC(C(=O)OCCCC)C(OC5OC(COS(=O)(=O)[O-])C(O)C(O)C5NC(C)=O)C(O)C4OS(=O)(=O)[O-])C(O)C3NC(C)=O)C(O)C2OS(=O)(=O)[O-])C(O)C1NC(C)=O.[Na+].[Na+].[Na+].[Na+].[Na+] (stereo not given); >200
CCCCCC(=O)OC/C(=C\C(=O)[O-])OC1OC(COS(=O)(=O)[O-])C(OC2OC(C(=O)[O-])C(OC3OC(COS(=O)(=O)[O-])C(OC4OC(C(=O)[O-])C(OC5OC(CS(=O)(=O)[O-])C(O)C(OC(=O)CCCCC)C5NS(=O)(=O)[O-])C(OC(=O)CCCCC)C4OS(=O)(=O)[O-])C(OC(=O)CCCCC)C3NS(=O)(=O)[O-])C(OC(=O)CCCCC)C2OS(=O)(=O)[O-])C(OC(=O)CCCCC)C1NS(=O)(=O)[O-].[Na+].[Na+].[Na+].[Na+].[Na+].[Na+].[Na+].[Na+].[Na+].[Na+].[Na+] (stereo in doubt; 2e); >294

Turning now to a further record.
Please supply the value of reported Selectivity index for the item CC(=O)NC1C(OC2C(C(=O)[O-])OC(OC3C(COS(=O)(=O)[O-])OC(OC4C(C(=O)[O-])OC(OC5C(COS(=O)(=O)[O-])OC(O/C(=C/C(=O)[O-])CO)C(NC(C)=O)C5O)C(OS(=O)(=O)[O-])C4O)C(NC(C)=O)C3O)C(OS(=O)(=O)[O-])C2O)OC(COS(=O)(=O)[O-])C(O)C1O.[Na+].[Na+].[Na+].[Na+].[Na+].[Na+].[Na+].[Na+] (stereo not given)
>185
